tested on: Saccharomyces cerevisiae; assay: protein stability index of tFT-peptide fusion (C-terminal peptide) (PSI (0-1 scale)); higher = more stable (slower turnover); conditions: genetic background: cdc34-1; temperature: 37 C;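 also: PSI is a weighted mean of sequencing reads over stability bins, variants kept only with over 10 reads, mCherry proximal and sfGFP distal, peptide attached via GGGS linker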
Classify as follows. Reported protein stability index greater than or equal to 0.4: label 1. Reported protein stability index below: label 0.

## Task In plain terms: is recorded protein stability index at least 0.4 for `RKQLSCIMIWCK` ?
## Result label 0

## Task In plain terms: is recorded protein stability index at least 0.4 for `RLGSLVPLAKQL` ?
## Result label 1

## Task In plain terms: is recorded protein stability index at least 0.4 for `SIPFWPVLFFLL` ?
## Result label 0

## Task In plain terms: is recorded protein stability index at least 0.4 for `LIICRSFLCKVR` ?
## Result label 0

## Task In plain terms: is recorded protein stability index at least 0.4 for `FVIVSSCIGYAL` ?
## Result label 1

## Task In plain terms: is recorded protein stability index at least 0.4 for `RSKLGVLVILWF` ?
## Result label 0

## Task In plain terms: is recorded protein stability index at least 0.4 for `RSGWWQWGRPGT` ?
## Result label 1

## Task In plain terms: is recorded protein stability index at least 0.4 for `WVRLWGVLEAQG` ?
## Result label 0

## Task In plain terms: is recorded protein stability index at least 0.4 for `IGSFYVLSFICQ` ?
## Result label 1

## Task In plain terms: is recorded protein stability index at least 0.4 for `SCCLLICIFFIF` ?
## Result label 0

## Task In plain terms: is recorded protein stability index at least 0.4 for `RFFVLSFFFLVS` ?
## Result label 0

## Task In plain terms: is recorded protein stability index at least 0.4 for `LLMFWLSIWFWG` ?
## Result label 0

## Task In plain terms: is recorded protein stability index at least 0.4 for `GMGHLSNVCLKT` ?
## Result label 1

## Task In plain terms: is recorded protein stability index at least 0.4 for `FVWAVGLVSASV` ?
## Result label 1

## Task In plain terms: is recorded protein stability index at least 0.4 for `LLILSVRPFVFV` ?
## Result label 1

## Task In plain terms: is recorded protein stability index at least 0.4 for `LGALFGRFWWYF` ?
## Result label 1

## Task In plain terms: is recorded protein stability index at least 0.4 for `KKKKKKKIKIMS` ?
## Result label 1

## Task In plain terms: is recorded protein stability index at least 0.4 for `GVQFRRPLIPIY` ?
## Result label 1
